Cited source for all entries: patent US20260116921A1

assay: in vitro; conditions: both, SD, rat, plasma (EDTA)
Bridge positions count the residues as written; N and C are the ends. Square brackets hold non-standard residues; d marks the D form. Peptide text beside a SMILES is read from it. Trp(7-Me) = Cc1cccc2c(C[C@H](N)C(=O)O)c[nH]c12; 2Nal = N[C@@H](Cc1ccc2ccccc2c1)C(=O)O; AEF = NCCOc1ccc(C[C@H](N)C(=O)O)cc1; Cit = NC(=O)NCCC[C@H](N)C(=O)O; Pen = CC(C)(S)[C@H](N)C(=O)O; αMeK = C[C@](N)(CCCCN)C(=O)O
measured endpoint: half-life at 20 μM

CC(=O)NCCCC[C@H](NC(=O)[C@](C)(CCCCN)NC(=O)[C@H](Cc1ccc2ccccc2c1)NC(=O)[C@H](Cc1ccc(OCCN)cc1)NC(=O)[C@H]1NC(=O)[C@H](CCCNC(N)=O)NC(=O)[C@H](Cc2c[nH]c3c(C)cccc23)NC(=O)[C@H]([C@@H](C)O)NC(=O)[C@H](CC(N)=O)NC(=O)[C@@H](NC(C)=O)C(C)(C)SSC1(C)C)C(=O)N[C@@H](CC(N)=O)C(=O)N[C@H](Cc1ccccc1)C(N)=O [compound 257] (Ac-[Pen]NT[Trp(7-Me)][Cit][Pen][AEF][2Nal][αMeK]K(Ac)N[dF]-NH2; disulfide 1-6)	> 24 h

Next, consider the following compound.
Please fill in: half-life at 20 μM reported for CC(=O)NCCCC[C@@H]1NC(=O)[C@H](Cc2c[nH]c3c(C)cccc23)NC(=O)[C@H]([C@@H](C)O)NC(=O)[C@H](CC(N)=O)NC(=O)[C@@H](NC(C)=O)C(C)(C)SSC(C)(C)[C@@H](C(=O)N[C@@H](Cc2ccc(OCCN)cc2)C(=O)N[C@@H](Cc2ccc3ccccc3c2)C(=O)N[C@@](C)(CCCCN)C(=O)N[C@@H](CCCCNC(C)=O)C(=O)N[C@@H](Cc2c[nH]cn2)C(=O)NCCC(N)=O)NC1=O = > 24 h

====

test: in vitro; details: cynomolgus monkey, 20% fecal homogenate (supernatant), anaerobic, pH 6.8
measured endpoint: half-life at 20 μM (h)
Only the number, expressed in h, is required.

Entry CC[C@H](C)[C@H](NC(=O)[C@H](CC(N)=O)NC(=O)[C@H](CCCCNC(C)=O)NC(=O)[C@](C)(CCCCN)NC(=O)[C@H](Cc1ccc2ccccc2c1)NC(=O)[C@H](Cc1ccc(OCCN)cc1)NC(=O)[C@H]1NC(=O)[C@H](CCCCNC(C)=O)NC(=O)[C@H](Cc2c[nH]c3c(C)cccc23)NC(=O)[C@H]([C@@H](C)O)NC(=O)[C@H](CC(N)=O)NC(=O)[C@@H](NC(C)=O)C(C)(C)SSC1(C)C)C(N)=O ; half-life at 20 μM = 15

====

experiment: in vitro; type: in vitro ADME; conditions: simulated intestinal fluid, pancreatin, pH 6.8, 37° C.; § matrix is 100 fold dilution of standard SIF concentration
Listing: SIF t½ of selected compounds
Enter your answer as a number in h; do not include the unit.

CC(=O)NCCCC[C@H](NC(=O)[C@](C)(CC(C)C)NC(=O)[C@H](Cc1ccc2ccccc2c1)NC(=O)[C@H](Cc1ccc(OCCN)cc1)NC(=O)[C@H]1NC(=O)[C@H](CCC(N)=O)NC(=O)[C@H](Cc2c[nH]c3c(C)cccc23)NC(=O)[C@H]([C@@H](C)O)NC(=O)[C@H](CC(N)=O)NC(=O)[C@@H](NC(C)=O)C(C)(C)SSC1(C)C)C(=O)N[C@@H](CC(N)=O)C(=O)N[C@@H](CC(N)=O)C(N)=O	24
CC(=O)NCCCC[C@H](NC(=O)[C@](C)(CC(C)C)NC(=O)[C@H](Cc1ccc2ccccc2c1)NC(=O)[C@H](Cc1ccc(OCCN)cc1)NC(=O)[C@H]1NC(=O)[C@H](CCC(N)=O)NC(=O)[C@H](Cc2c[nH]c3c(F)cccc23)NC(=O)[C@H]([C@@H](C)O)NC(=O)[C@H](CC(N)=O)NC(=O)[C@@H](NC(C)=O)C(C)(C)SSC1(C)C)C(=O)N[C@@H](CC(N)=O)C(=O)N[C@@H](CC(N)=O)C(N)=O	24

Now let's try a different one.
// SIF t½ lookup, compound = CC(=O)NCCCC[C@H](NC(=O)[C@](C)(CC(C)C)NC(=O)[C@H](Cc1ccc2ccccc2c1)NC(=O)[C@H](Cc1ccc(OCCN)cc1)NC(=O)[C@H]1NC(=O)[C@H](CCC(N)=O)NC(=O)[C@H](Cc2c[nH]c3cc(Cl)ccc23)NC(=O)[C@H]([C@@H](C)O)NC(=O)[C@H](CC(N)=O)NC(=O)[C@@H](NC(C)=O)C(C)(C)SSC1(C)C)C(=O)N[C@@H](CC(N)=O)C(=O)N[C@@H](CC(N)=O)C(N)=O , result: 24
